The entries below come with measured viability, T/C values attached.
# System: 494315-158-R-J1-PDC complex spheroid growth, percent test/control;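 note: compound exposure lasted seven days after spheroids formed for three days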
# assayExplanation: Anticancer human tumor 494315-158-R-J1-PDC patient-derived soft tissue sarcoma cell line growth inhibition [Asc]
# conditionNotes: second compound 0.01 µM; first compound 1 µM; active compounds read low
observable: viability, T/C (%)

O=C(c1cc(Cc2n[nH]c(=O)c3ccccc23)ccc1F)N1CCN(C(=O)C2CC2)CC1 + CNC(C)C(=O)NC1CN(S(=O)(=O)c2cccc(S(=O)(=O)N3CCC4CCC(C(=O)NC(c5ccccc5)c5ccccc5)N4C(=O)C(NC(=O)C(C)NC)C3)c2)CCC2CCC(C(=O)NC(c3ccccc3)c3ccccc3)N2C1=O
70.3
C#Cc1c(F)ccc2cc(O)cc(-c3ncc4c(N5CC6CCC(C5)N6)nc(OCC56CCCN5CC(F)C6)nc4c3F)c12 (configuration not stated) + CNC(C)C(=O)NC1CN(S(=O)(=O)c2cccc(S(=O)(=O)N3CCC4CCC(C(=O)NC(c5ccccc5)c5ccccc5)N4C(=O)C(NC(=O)C(C)NC)C3)c2)CCC2CCC(C(=O)NC(c3ccccc3)c3ccccc3)N2C1=O
89.3
